Task for the reader: assign each of the following compounds its reported AC50.
molecular target: CAAX prenyl protease 2 (Homo sapiens, UniProt Q9Y256); assay: human Rce1 protease inhibitors, dose response, biochemical, yeast membranes, quenched-peptide fluorescence, cherry-pick (AID 588849)
Sequence (Q9Y256 whole entry): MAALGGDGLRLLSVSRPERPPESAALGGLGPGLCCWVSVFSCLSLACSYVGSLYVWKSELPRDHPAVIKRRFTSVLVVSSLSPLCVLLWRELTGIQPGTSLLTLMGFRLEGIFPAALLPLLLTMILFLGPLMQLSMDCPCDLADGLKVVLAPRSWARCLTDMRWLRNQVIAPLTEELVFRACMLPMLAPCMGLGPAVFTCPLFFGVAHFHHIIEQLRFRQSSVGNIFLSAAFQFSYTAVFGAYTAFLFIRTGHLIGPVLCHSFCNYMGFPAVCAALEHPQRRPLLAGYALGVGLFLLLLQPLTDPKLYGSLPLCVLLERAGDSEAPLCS
Activity calls are given as the source filed them. Cut-off read from the data, not from the text of the source: actives have a measured AC50 and inactives only a lower limit.

I'm hoping you can list AC50 for every compound here, please.
1. OC(CNCCC1C=Nc2ccccc21)Cn1c2ccc(Cl)cc2c2cc(Cl)ccc21 (centres undefined)
2. NS(=O)(=O)c1ccc(N/N=C/c2cn(-c3ccccc3)nc2-c2cccs2)cc1
3. Cc1cc(C)cc(Nc2ccc(C(=O)O)cc2N)c1
4. CC1CCN(c2oc(-c3ccc(F)cc3)nc2C#N)CC1

Response line:
79.3 µM (active)
16.7 µM (active)
3.8 µM (active)
9.46 µM (active)
